Tested On: T1, CXCR4 (CXCR4-expressing HPB-ALL cells) (Homo sapiens, UniProt P61073)
T1 construct: endogenous in cells; host or cells: HPB-ALL (human T cell leukemia)
T1 sequence (P61073 whole entry): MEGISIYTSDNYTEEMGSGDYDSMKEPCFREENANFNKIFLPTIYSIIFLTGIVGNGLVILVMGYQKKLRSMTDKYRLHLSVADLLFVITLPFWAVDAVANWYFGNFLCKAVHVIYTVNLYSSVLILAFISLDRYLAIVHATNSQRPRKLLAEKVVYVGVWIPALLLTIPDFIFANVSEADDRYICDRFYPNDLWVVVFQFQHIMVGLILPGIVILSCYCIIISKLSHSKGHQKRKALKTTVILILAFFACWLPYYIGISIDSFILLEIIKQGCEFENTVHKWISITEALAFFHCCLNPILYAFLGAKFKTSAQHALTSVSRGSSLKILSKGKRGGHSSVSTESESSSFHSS
Protocol: Flow cytometry binding of humanized 3G10 Fabs to HPB-ALL cells (Example 2)
Measurement Parameters: Fab 2.5 μg/ml
Reported Property: MFI 2.5 μg/ml

Please look up its MFI 2.5 μg/ml: h3G10.A57 VH/h3G10.A11 VL: Fab; VH SEQ ID NO:23, VL A11 (probably A11A, SEQ ID NO:51) (antibody, V domains shown, Fab) VH: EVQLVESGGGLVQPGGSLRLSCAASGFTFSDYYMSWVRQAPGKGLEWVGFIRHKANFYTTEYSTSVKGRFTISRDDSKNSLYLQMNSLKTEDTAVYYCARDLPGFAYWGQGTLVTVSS VL: DIVMTQSPDSLAVSLGERATINCKSAQSLFNSRTRKNYLAWYQQKPGQPPKLLIYWASARESGVPDRFSGSGSGTDFTLTISSLQAEDVAVYYCKQSFRLRTFGGGTKVEIK
4521

How about this molecule: h3G10.B44 VH/h3G10.2.72 VL: Fab; VH SEQ ID NO:25, VL SEQ ID NO:49 (antibody, V domains shown, Fab) VH: EVQLVESGGGLVQPGGSLRLSCAASGFTFSDYYMSWVRQAPGKGLEWVSFIRHKANFYTTEYSTSVKGRFTISRDNSKNTLYLQMNSLRAEDTAVYYCAKDLPGFAYWGQGTLVTVSS VL: DIVMTQSPDSLAVSLGERATINCKSSQSLFNSRTRKNYLAWYQQKPGQPPKLLIYWASARESGVPDRFSGSGSGTDFTLTISSLQAEDVAVYYCKQSFRLRTFGGGTKVEIK
8908
